Cited source for all entries: PubChem BioAssay AID488788

molecular target: CAAX prenyl protease 2 (Saccharomyces cerevisiae (strain ATCC 204508 / S288c)) (UniProt Q03530); assay: yeast Rce1 CAAX endoprotease inhibition – biochemical, plate reader, cherry-pick, dose response (AID 488788); settings: Rce1p enzyme activity, at 10 µM (top of the series)
Sequence (Q03530 whole entry, looked up): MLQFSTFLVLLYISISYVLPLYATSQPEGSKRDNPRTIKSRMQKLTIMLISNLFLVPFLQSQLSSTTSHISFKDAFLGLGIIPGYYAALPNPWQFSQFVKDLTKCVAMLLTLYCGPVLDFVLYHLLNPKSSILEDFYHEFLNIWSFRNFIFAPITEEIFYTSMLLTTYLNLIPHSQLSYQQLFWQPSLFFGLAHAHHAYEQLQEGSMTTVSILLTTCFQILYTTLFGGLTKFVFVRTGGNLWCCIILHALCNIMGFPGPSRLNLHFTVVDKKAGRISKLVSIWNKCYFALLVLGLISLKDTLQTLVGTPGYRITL
Inconclusive results are not listed. Calls of active or inactive are those of the source. No rule for the calls is given here.
assay-endpoint: activity change, negative = inhibition

> print(dat)
                                   molecule  endpoint.result
1  COc1ccc(-c2c(-c3ccsc3)oc3ccc(N4CCOCC4)cc23)cn1         inactive
2  CCc1ccc(NC(=O)c2cnc(N3CCN(c4ccccn4)CC3)c3ccccc23)cc1         inactive
3  COc1cc(-c2c(C#N)c(N)nc3c2c(C)nn3-c2ccc(C)c(C)c2)cc(OC)c1OC         inactive
4  COc1cc(-c2nc3ccccn3c2/N=C/c2cc(OC)c(OC)c(OC)c2)ccc1O         inactive
5  Cc1ccc(C(=O)N2N=C(c3ccccc3O)CC2c2ccccc2)cc1 (stereo not given)         inactive
